// data source = ChEMBL document CHEMBL4219109

experimentalSystem: UniProtKB Q9BY41
Sequence (Q9BY41 whole entry): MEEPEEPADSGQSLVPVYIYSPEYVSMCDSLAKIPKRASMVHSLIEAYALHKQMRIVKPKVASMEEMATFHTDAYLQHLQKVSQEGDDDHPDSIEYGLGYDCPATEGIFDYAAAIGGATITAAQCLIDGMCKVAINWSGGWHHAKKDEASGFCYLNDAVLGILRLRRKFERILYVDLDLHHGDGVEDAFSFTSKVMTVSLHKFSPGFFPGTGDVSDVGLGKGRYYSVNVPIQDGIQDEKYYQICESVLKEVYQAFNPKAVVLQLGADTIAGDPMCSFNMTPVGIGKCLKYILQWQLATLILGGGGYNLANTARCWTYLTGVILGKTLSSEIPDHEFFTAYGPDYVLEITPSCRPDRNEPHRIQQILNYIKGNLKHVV
assayDetails: Inhibition of full length recombinant human C-terminal His-tagged HDAC8 expressed in baculovirus infected sf9 cells using Boc-Lys-(TFA)-AMC as substrate preincubated for 15 mins followed by substrate addition measured after 60 mins by fluorescence assay
pIC50: −log10 of the molar value.
Reported pIC50 values for the following molecules.

chemicalSmiles | pIC50
O=C(CCCCCNC(=O)c1cc(-c2ccc(F)cc2)[nH]n1)NO | 5.43
Cc1ccc(-c2cc(C(F)(F)F)nn2Cc2ccc(C(=O)NO)cc2)cc1 | < 5.30

Next:
Problem: Value lookup for pIC50; key = CCc1cc(-c2ccc(F)cc2)nn1Cc1ccc(C(=O)NO)cc1
Result: < 5.30
